The entries below are paired with their reported percent inhibition of DGAT2.
- Test system: rat DGAT2 mRNA
- Measurement Notes: Dose-dependent inhibition of DGAT2 in A10 cells (Tables 82, 83)
- Assay type: cell-based
- Condition Label: 12.5 nM (Table 82)
Strand notation (5' to 3'): a small letter for the sugar, then the base; units joined by * are phosphorothioate-linked, units joined directly phosphodiester-linked; [ ] holds rarer units or linkages, { } end groups; capitals alone tell only the bases. e = 2'-O-(2-methoxyethyl) (MOE); [5mC] = 5-methylcytosine; d = 2'-deoxy (DNA)
Answer with the number, then the unit.

Example substances with recorded percent inhibition of DGAT2:
Substance	percent inhibition of DGAT2
372562 (antisense eG*eT*d[5mC]*dT*dT*dG*dG*dA*dG*dG*dG*d[5mC]*e[5mC]*eG) [compound 372562]	0%
372618 (antisense eG*eT*dG*dG*dT*dA*d[5mC]*dA*dG*dG*dT*d[5mC]*eG*eA) [compound 372618]	5%
372568 (antisense eG*eA*d[5mC]*dA*d[5mC]*dT*dG*d[5mC]*dA*dG*dG*d[5mC]*e[5mC]*eA) [compound 372568]	0%
372602 (antisense e[5mC]*e[5mC]*dA*dG*dG*d[5mC]*dA*dT*dG*dG*dA*dG*e[5mC]*eT) [compound 372602]	0%

# input for lookup
Looking for the measured percent inhibition of DGAT2 of 372586 (antisense eG*eT*dT*d[5mC]*d[5mC]*dT*dG*dG*dT*dG*dG*dT*e[5mC]*eA) [compound 372586] , can you help? 0%
